// data source = patent US11696937B2

Let's look at some molecules and their measured Zebrafish LD50.
Tested on: wild AB zebrafish
Experiment: Zebrafish toxicity test
Type: in vivo
Details: intravenous injection, 72 hours of treatment, samples in phosphate form
State just the number; it will be interpreted in ng/tail.

What does the data say about its Zebrafish LD50? Entry: CNC(CC(C)C)C(=O)NC1C(=O)NC(CC(N)=O)C(=O)NC2C(=O)NC3C(=O)NC(C(=O)NC(C(=O)O)c4cc(O)cc(O)c4-c4cc3ccc4O)C(OC3CC(C)(N)C(O)C(C)O3)c3ccc(c(Cl)c3)Oc3cc2cc(c3OC2OC(CO)C(O)C(O)C2OC2CC(C)(NCc3ccc(NCCCc4ccccc4)cc3)C(O)C(C)O2)Oc2ccc(cc2Cl)C1O (centres unmarked) [Compound 24]
153

Same thing, different molecule: CNC(CC(C)C)C(=O)NC1C(=O)NC(CC(N)=O)C(=O)NC2C(=O)NC3C(=O)NC(C(=O)NC(C(=O)O)c4cc(O)cc(O)c4-c4cc3ccc4O)C(OC3CC(C)(N)C(O)C(C)O3)c3ccc(c(Cl)c3)Oc3cc2cc(c3OC2OC(CO)C(O)C(O)C2OC2CC(C)(NCc3ccc(NCc4ccc(Cl)cc4)cc3)C(O)C(C)O2)Oc2ccc(cc2Cl)C1O (centres unmarked) [Compound 19]
117
